Source: patent US4870097A

Field: percentage variation in the latency time, day 1. Provide a value for each of the molecules that follow.
system: tolerance induced by morphine; experiment: Antagonism to the development of tolerance to repeated administration of morphine HCl (tail flick); format: in vivo, rats; settings: day 1; 3 mg/kg i.p. + morphine HCl 3 mg/kg i.p. (row Morphine: alone)
Give bare numbers, in %.

{"columns": ["molecule", "unit", "reading"],
 "data": [
  ["O=C(N[C@@H](Cc1c[nH]c2ccccc12)C(=O)O)OCc1ccc(F)cc1 [Compound 1, N-p-fluorocarbobenzoxy-L-tryptophan]", "%", 69.33]
]}

For each listed entry, give its percentage variation in the latency time, day 1.
1. O=C(N[C@@H](Cc1c[nH]c2ccccc12)C(=O)O)OC(c1ccccc1)c1ccccc1 [Compound 33]
2. CN1CC[C@]23c4c5ccc(O)c4O[C@H]2[C@@H](O)C=C[C@H]3[C@H]1C5 [Morphine, morphine, reference compound]
3. CCCCCCc1ccc(C(=O)N[C@@H](Cc2c[nH]c3ccccc23)C(=O)O)cc1 [Compound 26]

Result:
1: 67.02; 2: 37.43; 3: 45.73
